System: RARa:RXR (NR concentration 270 nM, RXRa partner concentration 90 nM)
Experiment: PBM binding z-score (relative to random genomic background probes); higher = stronger binding; sequences stand for … in GC…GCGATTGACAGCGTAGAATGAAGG
Listed next: entries and their corresponding PBM binding z-score.
Give the figure by itself; no unit, no explanation.

Answered cases to consult:
                     ordered_residues    observed_property  recorded_result
0  CCGACTGGGGCAGCAAGGTTACCATACCATCCGG  PBM binding z-score            0.662
1  CATACAGGGTCAGCTAGGCCACAGTAGGGACGGC  PBM binding z-score              3.4
2  CCTTACGGGTCAAGCTTATAGCACGGGTGGTACG  PBM binding z-score             3.81
3  CCGACTGGGCCAAAGGTCATTGATTCCAATGCTC  PBM binding z-score             5.72
4  AATACAGGGTCATAGTAGGCCAGAGTACGCACAG  PBM binding z-score              4.7

Moving on to the next sequence.
Any idea what PBM binding z-score was measured for CCTACTGGGCCAAAGGTCATTGTTTCCAATGCTC ? 6.23

* * *

System: RARg homodimer (NR concentration 270 nM)
Assay: PBM binding z-score (relative to random genomic background probes); higher = stronger binding; sequences stand for … in GC…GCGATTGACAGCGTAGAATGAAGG
Observed Property: PBM binding z-score
Give the figure by itself; no unit, no explanation.

Answered cases to consult:
In [3]: df
Out[3]:
                     ordered_residues  recorded_result
0  AGTCATAGTTCATCTAGGTAACGTAAGATATGCT             3.33
1  CGTCTAAGGTCAATGCTAGGTCAGTGAAAGCATT             7.34
2  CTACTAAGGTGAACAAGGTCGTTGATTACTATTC             1.64
3  ATGTCTAGGTAAGACTCAGTTCAGTGAAGAACGC            0.257
4  CAAACTAGGTCACCGGAAGGTAAAAGTCCGCATG             5.29

Any idea what PBM binding z-score was measured for ATATGGAGGTTATCGGGTCATTCAGTTTGCGCAT ? 3.28

Any idea what PBM binding z-score was measured for GCCCGGAGGACAAGGTCAGAGCTTTGTCCGTAGA ? 3.62

Any idea what PBM binding z-score was measured for GCATGTAGGTAATACAAGGTGAAAGTCCGATTGT ? 0.236

Any idea what PBM binding z-score was measured for TAGCCTTGGTCATGCGGGCCAGTATAGTGTCGGC ? 0.129

Any idea what PBM binding z-score was measured for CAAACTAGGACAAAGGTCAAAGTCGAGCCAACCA ? 5.88

Any idea what PBM binding z-score was measured for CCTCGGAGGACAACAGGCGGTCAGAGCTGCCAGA ? 1.63

Any idea what PBM binding z-score was measured for TCTAGTAGGTTACCAATGGGGCATTCAGCTTTCT ? 0.705

* * *

Tested on: PPARg:RXRa 270nM:90nM, anti-RXR (NR concentration 270 nM, RXRa partner concentration 90 nM)
Test: PBM binding z-score (relative to random genomic background probes); higher = stronger binding; sequences stand for … in GC…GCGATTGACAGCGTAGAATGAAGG
Observed Property: PBM binding z-score
Give the figure by itself; no unit, no explanation.

Answered cases to consult:
>>> df
                     ordered_residues  recorded_result
0  CAAACTAGGTTACAGAGGTCAAAGTCCGTGCGTA             7.19
1  ACCAGCAGGCCAAGTTTGGGTCACTCAAACAAAG            0.223

Any idea what PBM binding z-score was measured for TCATATAGGTAAACAGTTGAAAGTCCGTAAGTTA ? 2.91

Any idea what PBM binding z-score was measured for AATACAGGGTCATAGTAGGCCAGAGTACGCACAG ? 5.33

Any idea what PBM binding z-score was measured for ACAGACGGGTGATGAAGGTAACTCAGGCTATCAT ? -0.161
